Overview of reported pIC50 across a group of compounds:
molecular target: IGF1R Ba/F3 (Homo sapiens, UniProt P08069); experiment: Ba/F3 Cell Viability Inhibition Assay (Tel-TK transformed Ba/F3 lines); assay type: cell-based, murine; parameters: the printed alternative; conditions: Tel-TK (IGF1R) transformed Ba/F3 cells, 48 hours incubation, cell viability (Britelite luminescence)
Sequence (P08069 999-1274 limits assumed): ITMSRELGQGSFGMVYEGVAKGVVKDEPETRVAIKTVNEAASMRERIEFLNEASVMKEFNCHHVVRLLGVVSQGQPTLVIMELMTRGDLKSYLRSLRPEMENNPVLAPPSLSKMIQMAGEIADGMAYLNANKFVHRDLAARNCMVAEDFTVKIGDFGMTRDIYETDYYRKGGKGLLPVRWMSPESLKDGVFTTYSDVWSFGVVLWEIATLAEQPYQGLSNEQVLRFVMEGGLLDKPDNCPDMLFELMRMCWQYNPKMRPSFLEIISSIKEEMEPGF
Hey, just a heads up that pIC50 is the negative log base 10 of the concentration in molar.

Some compounds with recorded pIC50:
[
  {
    "compound": "Cc1cc(Nc2nc(Nc3cc(F)c(-c4cnn(C)c4)cc3C)ncc2Cl)n[nH]1",
    "pIC50": 6.26
  },
  {
    "compound": "C/C(=N\\OCCN1CCOCC1)c1cc(C)c(Nc2ncc(Cl)c(Nc3cc(C)[nH]n3)n2)cc1C",
    "pIC50": 6.73
  },
  {
    "compound": "Cc1cc(Nc2nc(Nc3cc4c(cc3F)CN(C3CCNCC3)C4=O)ncc2Cl)no1",
    "pIC50": 5.58
  },
  {
    "compound": "Cc1cc(Nc2nc(Nc3cc(C)c(-c4ccoc4)cc3F)ncc2Cl)n[nH]1",
    "pIC50": 6.17
  },
  {
    "compound": "Cc1cc(-c2cc(C)c(Nc3ncc(Cl)c(Nc4cc(C)[nH]n4)n3)cc2C)on1",
    "pIC50": 6.56
  },
  {
    "compound": "COc1cc(-c2cnco2)c(C)cc1Nc1ncc(Cl)c(Nc2cc(C)[nH]n2)n1",
    "pIC50": 6.77
  },
  {
    "compound": "CNC(=O)c1ccc(-c2cc(F)c(Nc3ncc(Cl)c(Nc4cc(C)[nH]n4)n3)cc2C)cn1",
    "pIC50": 7.05
  },
  {
    "compound": "Cc1cc(Nc2nc(Nc3ccc(C4CCN(CC(O)C(F)(F)F)CC4)c4ccccc34)ncc2Cl)n[nH]1 (stereo not shown)",
    "pIC50": 6.46
  }
]

[ask] Respond only with pIC50 recorded for `Cc1cc(Nc2nc(Nc3cc(C)c(-c4ccsc4)cc3F)ncc2Cl)n[nH]1`
[reply] 6.08

[ask] For the compound `Cc1cc(Nc2nc(Nc3ccc(C4CCN(CC(N)=O)CC4)c4ccncc34)ncc2Cl)n[nH]1` , give its measured pIC50 value.
[reply] 5.48

[ask] Quote pIC50 reported for `CO/N=C(\C)c1cc(C)c(Nc2ncc(Cl)c(Nc3cc(C)[nH]n3)n2)cc1C` please.
[reply] 6.57

[ask] Give the measured pIC50 for `Cc1cc(Nc2nc(Nc3cc4c(cc3F)CNC4=O)ncc2Cl)n[nH]1`
[reply] 5.58
